tested on: Pseudomonas aeruginosa; experiment: Anti-microbial activity against Pseudomonas aeruginosa PAO1 incubated for 20 hrs By CLSI based micro-dilution method; type: functional
A collection of compounds and their measured MIC

O=C(CCCCCOc1cccc(F)c1)NNc1nc2ccccc2o1 :: > 512 µg/mL

### Prompt Can you share its MIC? I mean this compound: `O=[N+]([O-])c1ccccc1/C=N/Nc1nc2ccccc2o1`
### Response 256 µg/mL

### Prompt Can you share its MIC? I mean this compound: `Clc1ccc(/C=N/Nc2nc3ccccc3o2)cc1Cl`
### Response > 512 µg/mL

### Prompt Can you share its MIC? I mean this compound: `CCCC(=O)N/N=c1\sc2ccccc2n1C`
### Response > 512 µg/mL

### Prompt Can you share its MIC? I mean this compound: `O=C(CCCOc1cccc(F)c1)NNc1nc2ccccc2o1`
### Response > 512 µg/mL

### Prompt Can you share its MIC? I mean this compound: `O=C(CCCCOc1ccc(Cl)cc1)NNc1nc2ccccc2o1`
### Response > 512 µg/mL

* * *

system: Bacillus pumilus; experiment: Anti-microbial activity against Bacillus pumilus CMCC63202 incubated for 20 hrs By CLSI based micro-dilution method; format: functional
A collection of molecules and their measured MIC

O=C(COc1ccc(Cl)cc1)NNc1nc2ccccc2o1 :: > 512 µg/mL
CCCCC(=O)N/N=c1\sc2ccccc2n1C :: > 512 µg/mL
O=C(CCCCOc1ccc(Cl)cc1)NNc1nc2ccc(Cl)cc2o1 :: 256 µg/mL

### Prompt Can you share its MIC? I mean this molecule: `CCCC(=O)N/N=c1\sc2ccccc2n1C`
### Response > 512 µg/mL

### Prompt Can you share its MIC? I mean this molecule: `CCCCCCCCCCCC(=O)N/N=c1\sc2ccccc2n1C`
### Response > 512 µg/mL

### Prompt Can you share its MIC? I mean this molecule: `COc1ccc(OCCCCCC(=O)NNc2nc3ccccc3o2)cc1`
### Response 512 µg/mL

* * *

test system: Pseudomonas aeruginosa; test: Antibiofilm activity against logarithmic growth phase Pseudomonas aeruginosa PAO1 assessed as inhibition of biofilm formation at 32 microg/ml incubated for 20 hrs by crystal violet staining based analysis; assay type: functional
OBSERVABLE: inhibition at 32 µg/mL

O=C(COc1ccc(Cl)cc1)NNc1nc2ccccc2o1 :: > 25.4%
CCCCCCCCCCC(=O)N/N=c1\sc2ccccc2n1C :: > 25.4%
O=C(CCCCOc1ccc(F)cc1)NNc1nc2ccc(Cl)cc2o1 :: > 25.4%
COc1ccc(OCCCC(=O)NNc2nc3ccccc3o2)cc1 :: > 25.4%
O=C(CCCCOc1ccc(F)cc1)NNc1nc2ccccc2o1 :: > 25.4%

Please find the next compound below.
### Prompt Test system Pseudomonas aeruginosa; read-out inhibition at 32 µg/mL; what value for `COc1ccc(/C=N/Nc2nc3ccccc3o2)cc1OC` ?
### Response > 25.4%

* * *

A collection of compounds and their measured inhibition at 102.4 µg/mL
system: Pseudomonas aeruginosa; experiment: Anti-virulence activity against logarithmic growth phase Pseudomonas aeruginosa PAO1 assessed as inhibition of Rhamnolipid production at 102.4 microg/ml measured after 24 hrs; assay type: functional

Some compounds with recorded inhibition at 102.4 µg/mL:
O=C(CCCCOc1ccc(Cl)cc1)NNc1nc2ccccc2s1 :: > 40%
O=C(CCCCOc1cccc(F)c1)NNc1nc2ccccc2o1 :: 52.1%
COc1ccc(OCCCCC(=O)NNc2nc3ccccc3o2)cc1 :: 52.1%
COc1ccc(OCCCC(=O)NNc2nc3ccccc3o2)cc1 :: > 40%
O=C(CCCOc1cccc(C(F)(F)F)c1)NNc1nc2ccccc2o1 :: > 40%

### Prompt Can you share its inhibition at 102.4 µg/mL? I mean this compound: `O=C(CCCOc1ccc(C(F)(F)F)cc1)NNc1nc2ccccc2o1`
### Response > 40%

### Prompt Can you share its inhibition at 102.4 µg/mL? I mean this compound: `O=C1C=C(Br)/C(=C\Br)O1`
### Response 44.9%

### Prompt Can you share its inhibition at 102.4 µg/mL? I mean this compound: `O=C(CCCCOc1ccc(F)cc1)NNc1nc2ccc(Cl)cc2o1`
### Response > 40%

### Prompt Can you share its inhibition at 102.4 µg/mL? I mean this compound: `O=C(CCCCOc1ccc(Cl)cc1)NNc1nc2ccc(Cl)cc2o1`
### Response > 40%
